Attribution: the nanobody polyreactivity screen of Harvey et al. (2022)

Test: yeast display, Sf9 membrane polyspecificity reagent, FACS + sequencing; frameworks hold sequencing errors
READOUT: polyreactivity (PSR sort gate)

| BIOSEQUENCE | READOUT | RESULT |
| --- | --- | --- |
| QVQLVESGGGLVQAGGSLRLSCDASGFIFVRYAMGWYRQAPGKEREFVAAISRSGGSTYYADSVKGRFTISRDNAKNTVYLQMNSLKPEDTAVYYCARQYASPRREFEYWGQGTQVTVSS | polyreactivity (PSR sort gate) | high polyreactivity |
| QVQLVESGGGLVQAGGSLRLSCAASGYTSYTYTMGWYRQAPGKERELVAAISRRSDTTYADSVKGRFTISRDNAKNTVYLQMNSLKPEDTAVYYCAAVRVSYRSLSKSYYWGQGTQVTVSS | polyreactivity (PSR sort gate) | high polyreactivity |
| QVQLEESGGGLVQAGGSLRLSCAASGRTSRSYTMGWYRQAPGKERELVAAITRGGRTYYADSVKGRFTISRDNANNTVYLQMNSLKPEDTAVYYCDTVRVQSYGYWGQGTQVTVSS | polyreactivity (PSR sort gate) | low polyreactivity |
| QVQLVESGGGLVQAGGSLRLSCAASGRIFYFYAMGWYRQAPGKERELVAGITRSGDSTYADSVKGRFTISRDNAKNTVYLQMNSLKPEDTAVYYCAADFPWSTKSCHPDSGDSWGQGTQVTVSS | polyreactivity (PSR sort gate) | low polyreactivity |
| QVQLVESGGGLVQAGGSLRLSSAASGRTFDRNAMGWYRQAPGKERELVAGITRSGDSTYADSVKGRFTISRDNAKITVYLQMNSLKPEDTAVYYCNKEGTVGGTRGYWGQGTQVTVSS | polyreactivity (PSR sort gate) | low polyreactivity |

###

Test: yeast display, Sf9 membrane polyspecificity reagent, FACS + sequencing; frameworks hold sequencing errors

| BIOSEQUENCE | polyreactivity (PSR sort gate) |
| --- | --- |
| QVQLVESGGGLVQAGGSLRLSCAASGFIFVYYVMGWYRTAPGKERELVAAITQSGGSTYYADSVKGRFTISRDNAKNTVYLQMNSLKPEDTAVYYCAAYRRTTGGGYDYWGQGTQVTVSS | high polyreactivity |
| QVQLVESGGGLVQAGGSLRLSCAASGRTFPRNGMGWYRQAPGKERELVAAISWSGGRTYYADSVKGRFTISRDNAKNTVYLQMNSLKPEDTAVYYCNALYFRKGGYWGQGTQVTVSS | high polyreactivity |
| QVQLVESGGGLVQAGGSLRLSCAASGFIFNKYAMGWYRQAPGKERELVATIRRDGSTNYADSVKGRFTISRDNAKNTVYLQMNSQKPEDTAVYYCAVRPYYWSRDYYWGQGTQVTVSS | high polyreactivity |
| QVQLVESGGGLVQAGGSLRLSCAASGSIFWYNAMGWYRQAPGKERELVAAIRWRGGSTYYADSVKGRFTISRDNAKNTVYVQMSSLKPEDTAVYYCAAQVYVSQLYTSYYYWGQGTQVTVSS | high polyreactivity |
| QVQLVESGGGLVQAGGSLRLSCAASVRIYRPYAMGRYRQAPGKERELVAAISGSGGSTYYADSVKGRFTISRDNAKNTVYLQMNSLKPEDTAVYYCNAAPKWSDYFYPLEYWGQGTQVTVSS | low polyreactivity |
| QVQLVDSRGGLVQAGGSLRLSCAASGFTFWYYAMGWYRQAPGKERELVAAITNGGGSKYYADSVKGRFTISRDNAKNTFYLQMNSLKPEDTAVFYCAKDGHSYYPWEYDYWGQGTQVTVSS | low polyreactivity |
| QVQLVESGGGIVQAGGSLRLICAASGSTFYPYAMGWYRQAPGKERELVAGISWSGGSTYYADSVKGRFTISRDNAKYTVYLQMNSLKPEDTAVYYCAVDVYWSVIYDYWGQGTQVTVSS | low polyreactivity |
| QVQLGESGGGLVQAGGSLRLSCAASGSIFRGYAMGWYRQAPGKGRELVAAISWSGASTYYADSVKGRFTISLDNAKNTVYLQMNSLKPEDTAVYYCAAVQWTGYPFDYWGQGTQVTVSS | high polyreactivity |
| QVQLVESGGGLVQAGGSLRLSCAASGSIFWAYAMGWYRQAPGKERELVAAISRGGTTTYADSVKGRFTISRDNAKNTVYLQMNSLKPEDTAVYYCARRAVYSKRRYDYWGQGTQVTVSS | low polyreactivity |
| QVQLVESGGGFVQAGGSLRLSCAASGFIFYMFAMGWYRQAPGKERELVAAITSRGGSTFYADSVKGRFTISRDNAKNTVYLQMNSLKPEDTAVYYCAAVRDLYTYRLGYWGQGTQVTVSS | high polyreactivity |
| QVQIVESGGGLVQAGGSLRLSCAASGSTIIRNAMGWSRQAPRKERELVAAISTSGGRTHYADSVKGRFTISRDNAKNTVYLQMNSLKPEDTAVYYCASRGKGHYYYWGQGTQVTVSS | high polyreactivity |

###

Test: yeast display, Sf9 membrane polyspecificity reagent, FACS + sequencing; frameworks hold sequencing errors

| BIOSEQUENCE | polyreactivity (PSR sort gate) |
| --- | --- |
| QVQLVESGGGLVQAGGSLRLSCAASGGIFLVNDMGWYRQAPGKERELFAAITSGGGTYYADSVKGRFTISRDNAKNTVYLQMNSLKPEDTAVYYCARDTYRQIVSNESYGYWGQGTQVTVSS | low polyreactivity |
| QVQLVESRGGLVQAGGSLRLSCAASGFIFGYYALGWYRQAPGKEWELVAAITNGGRTYYADSVKGRFTISRDNAKNTVYLQMISLKPEDTAVYYCAARPSWWSALFDSWGQGTQVTVSS | low polyreactivity |

###

Assay: yeast display, Sf9 membrane polyspecificity reagent, FACS + sequencing; frameworks hold sequencing errors

| BIOSEQUENCE | polyreactivity (PSR sort gate) |
| --- | --- |
| QVQLVESGGGLVQAGGSLRLSCAASGLTIWRYAMGWYRQAPGKEREFVATISQYGGRTYYAASVKGRFTITRDNAKKTVNLQMNSLKPEDTAVYYCAADDWRWGYDYWGPGTQVTVSS | high polyreactivity |
| QVQLVESGGGLVQAGGSLRLSCAASGSTLVYNDMGWYRQAPGKEREFVAAIRSNDGSTYYADSVKGRFTISRDNAKNTVYLQMNSLKPEDTAVYYCNKDVWDGYDWPEFDYWGQGTQVTVSS | low polyreactivity |
| QVQLVESGRGLVQAGVSLRLSCAASGRIFTYYAMGWYRQAPGKERELVAAITTRGGRTRYADSVKGRFTISRDNAKITVYLQMNSLKPEDTAVYYCARGHSSVGPQYDYWGQGTQVTVSS | high polyreactivity |
| HVQLQESGGGLVQPGGSLRLSCAASGNISFSRNMGWYRQAPGKERELVAAIDRGAITYYGDSVKGRFTISRDNAKNTVYLQIYSLKPEDTAVYYCAAEYHDGWDHRYWGQGTQVTVSS | high polyreactivity |
| QVQLVESGGGIVQAGGSLRLSCDGSGSTFTYYAMGWYRQEPGKEWEFVAAISRRGGSTYYADSVKGRFTISRDNAKNTVYFQLNSLKPEDTAVSDCNVVIYSYGINGRYDYWGQGTQVTVSS | high polyreactivity |
| QVQLVESGGGLVQAGGSLRLSCAASGITFYGYAMGWYRQAPGKERELVAAISGNGGRTYYADSVKGRFTISRDNAKNTVYLQMNSLKPEDTAVYYCNVKVRSRRTGDRYDYWGQGTQVTVSS | high polyreactivity |
| QVQLVESGGGLVQAGGSLRLSCAASGSTFHSYVMGWYRQAHGKERELVAAITSRGGSTNYADSVKGRFTISRDNAKNTVYLQMNSLKPEDTAVYYCAADGYWGWSYFRYDYWGQGTLVTVSS | low polyreactivity |
| QVQLVESGGGLVQAGGSLRLSCAASGRIFAAYAMGWYRQAPGKEREFVAAIRLSGGSTYYADSVKGRFTISRDNAKNTVYLQMNSLKPEDTAVYYCAARYPGVARFYYWGQGTQLTVSS | high polyreactivity |
| QVQLVESGGGLVQAGGSLRLSCAASGSIFSSNAMGWYRQAPGKERELVAAITVSGGSTYYADSVKGRFTISRDNAKNTVYLQMNSLKPEDTAVYDCAVPVTYYFDGSWWRYDYWGQGTQVTVSS | high polyreactivity |
| QVQLVESGGGLVQAGGSLRLSCAASGFIFGLYAMGWYRQAPGKERELVATISWDGGSTYYADSVKGRFTISRDNAKNTVYLQMNSLKPEDTAVYYCNARYIGGYGYWGQGTQVTVSS | low polyreactivity |
| QVQLVESGGGLVQAGGSLRLSCAASGSIFWHNAMGWYRQAPGTEREFVAAISGSGGSTYYADSVKGRFTISRDNAKNTVYLQMISLKPEDTAVYYCAADIYYWSFYYSRYDYWGQGTQVTVSS | high polyreactivity |
| QVQLVESGGGLLQAGGSLPLSCAASGSIFPGYAMGWYRQAPGKERELVATITWSGGSTYYADSVKGRFTISRDNAKNTVYLQMNSLNPADTAVYYCNADSNWYYQWNYYGLYDYWGQATQVTVSS | low polyreactivity |
| QVQLVESAAGLVQAGGSLSLSCAASGFIFWRYAMGWYRQAPGKERELVAAISVSGTRTYYADSVKGRFTISRDNAKNTVYLQMNSLKPEDTAVYYCNAASRSFSSDRAFDYWGQGTQVTVSS | high polyreactivity |
| QVQLVESGGGLVQAGGSLRLSCAASGRTFNRNAMGWYRPAPGKERELVAAISRGGGGTFYADSVKGRFTISRDNAKNTVYLQMNSLKPEDTAVYYCAVWQDHYDWGQGTQVTVSS | low polyreactivity |
| QVQLVESGGGLVQAGGSLRLSCAASGIIFWYYAMGWYRQAPGKERELVAAISSGGGTNYADSVKGRFTISRDNAKNTVYLQMNSLKPEDTAVYYCNADDNPVWEYDYWGQGTQVTVSS | low polyreactivity |
| QDQLVESGGGLVQAGGSLRLSCAASGIIFDYYAMGWYRQAPGKERELVASISWSGGGTYYADSVKGRFTISRDNAKNTVYLQMNSLKAEDTAVYYCAADGSTVNAPRWSDPYDYWGQGTQVTVSS | low polyreactivity |
| QVQLVESGGGLVQAGGSLRLSCAASGSIFYRNTMGWYRQAPGKERELVASINTGTGTYYADSVKGRFTISRDNAKNTVYLQMNSLKPEDTAVYYCNSKGWVWPFPSYYPYDSWGQGTQVTVSS | high polyreactivity |
| QVQLVESGGGLVQAGGSHRLSCAASARIFYLYAMGWYRQAPGKERELVAAISRSGSSTYYADSVKGRFTISRDNPKNTVYLEMNSLKPEDTAVYYFADLRYRPVHQDHYDYWGQGTQVTVSS | high polyreactivity |
| QVQLVESGGGLVQAGGSLRLSCAASGSTSAYYVMGWYRQAPGKERELVAAIDFSGDSTYYADSVKGRFTISRDNAKNTVYLQMNSLKPEDTAVYYCAAELFNYSSLVSYEYWGQGTQVTVSS | high polyreactivity |
| QVQLVESGGGLVQAGGSLRLSCAASGRIFIWYGMGWYRQAPGKERELVADISSTGSTNYADSVKGRFTISRDNAKNTVYLQMNSLKPEDTAVYYCAADPETPYYTTYDYDYWGQGTQVTVSS | low polyreactivity |
| QVQLVESGGGLVQAGGSLSLSCAASGRIFTRYAMGWYRQAPGKERELVAAISYGGGGTYYADSVKGRFTISRDNAKNTVYLQMNSLKPEDTAVYYCATDDPLSQINEHGMDYWGQGTQVTVSS | low polyreactivity |
